This listing pairs binders with measured kon.
- systemName: T1, cynomolgus IL-36γ, truncated (cynomolgus macaque (Macaca fascicularis), UniProt Q9NZH8 18-167 (human entry), limits assumed)
- T1 construct: Untagged after removal of the His-SUMO tag; also called cynomolgus IL-36 gamma; cyIL-36gamma
- T1 chain: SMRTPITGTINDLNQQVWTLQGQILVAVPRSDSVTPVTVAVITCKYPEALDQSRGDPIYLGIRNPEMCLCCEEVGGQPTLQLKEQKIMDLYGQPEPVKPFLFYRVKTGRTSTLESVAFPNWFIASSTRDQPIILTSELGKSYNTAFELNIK
- testDetails: SPR, Biacore, 1:1 Langmuir fit; heads of c3 and c4 printed swapped

binder	valueUnit	kon
144L249B LV9 HV10c (antibody, V domains shown, Humanized) VH: QVQLVQSGAEVKKPGASVKVSCKASGFNIKDTYIYWVRQAPGQGLEWIGRIDPAIGTTRYDPKFQGKATLTADTSTNTAYLELSSLRSEDTAVYYCARYDYSGSSFYFDYWGQGTLVTVSS VL: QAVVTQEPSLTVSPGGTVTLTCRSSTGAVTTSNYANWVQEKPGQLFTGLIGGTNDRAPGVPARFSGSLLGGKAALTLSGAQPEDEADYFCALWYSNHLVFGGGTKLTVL	M⁻¹ s⁻¹	1.09e+06
144L249B LV9 HV11 (antibody, V domains shown, Humanized) VH: QVQLVQSGAEVKKPGASVKVSCKASGFNIKDTYIYWVRQAPGQGLEWIGRIDPAIGTTRYDPKFQGKATLTTDTSTNTAYLELSSLRSEDTAVYYCARYDYSGSSFYFDYWGQGTLVTVSS VL: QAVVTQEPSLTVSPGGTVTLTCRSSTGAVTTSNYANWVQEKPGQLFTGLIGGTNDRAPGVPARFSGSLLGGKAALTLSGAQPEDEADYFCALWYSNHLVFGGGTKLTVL	M⁻¹ s⁻¹	948000
144D464A LV10re HV10b (antibody, V domains shown, Humanized) VH: QVQLVQSGAEVKKPGASVKVSCKASGFNIKDTYIHWVRQAPGQGLEWIGRIDPAIGTTRYDPKFQGRATITTDTSTSTVYLEFSSLRSEDTAVYYCARLHYFGNNFFFDYWGQGTLVTVSS VL: QAVVTQEPSLTVSPGGTVTLTCRSSSGAVTTSNYANWVQEKPGQLFAGLIGGTNDRAPGVPARFSGSLLGGKAALTLSGAQPEDEAIYFCALWFSNHWVFGGGTKLTVL	M⁻¹ s⁻¹	460000
